Measured values drawn from patent US6756367B2 for this set.

Structures can show the parent of a compound that is named as a salt.
Would you mind telling me the reported melting point of each entry?

{"columns": ["COMPOUND", "melting point"],
 "data": [
  ["CCCCN(CC)c1nc(C)nc(Nc2c(C)cc(C)c3nsnc23)c1C", "83 to 84 °C"]
]}

Each compound below has a reported value. Please supply its melting point.
1. CCCN(CCC)c1cc(Nc2c(C)cc(C)c3nsnc23)nc(C)n1 (as salt: fumarate)
2. CCCN(CCC)c1nc(C)nc(Nc2c(Cl)cc(C)c3nsnc23)c1C

# output
1: 177 to 179 °C; 2: 112 to 114 °C

Each compound below has a reported value. Please supply its melting point.
1. CCCN(CCC)c1nc(C)nc(Nc2c(C)cc(Cl)c3nsnc23)c1C
2. CCCN(CCC)c1nc(C)nc(Nc2c(Cl)cc(Cl)c3nsnc23)c1C

# output
1. 102 to 104 °C
2. 118 to 121 °C
